The measured values listed here are drawn from ChEMBL document CHEMBL4184112.

I'd be grateful if you could share measured IC50 for these entries.
test: Inhibition of LPS-induced B lymphocytes (unknown origin) proliferation; format: functional
# number only, unit µM dropped from output

Incoming: Annotate the compound `CO[C@H]1[C@@H](O)[C@@H](C)O[C@@H](O[C@H]2[C@@H](OC)C[C@H](O[C@H]3[C@@H](OC)C[C@H](O[C@H]4[C@@H](O)C[C@H](O[C@@H]5[C@@H](C)O[C@@]6(C[C@H]5OC)OCO[C@@H]5C[C@H](O[C@@H](C)[C@@]7(O)CC[C@H]8[C@@H]9CC=C%10C[C@@H](O)CC[C@]%10(C)[C@H]9CC[C@@]87C)O[C@H](C)[C@H]5O6)O[C@@H]4C)O[C@@H]3C)O[C@@H]2C)[C@@H]1O` with its measured IC50.
Outgoing: 0.75

Incoming: Annotate the compound `CO[C@H]1[C@@H](O)[C@@H](C)O[C@@H](O[C@H]2[C@@H](OC)C[C@H](O[C@H]3[C@@H](OC)C[C@H](O[C@H]4[C@@H](OC)C[C@H](O[C@@H]5[C@@H](C)O[C@@]6(C[C@H]5OC)OCO[C@@H]5C[C@H](O[C@@H](C)[C@@]7(O)CC[C@H]8[C@@H]9CC=C%10C[C@@H](OC=O)CC[C@]%10(C)[C@H]9CC[C@@]87C)O[C@H](C)[C@H]5O6)O[C@@H]4C)O[C@@H]3C)O[C@@H]2C)[C@@H]1O` with its measured IC50.
Outgoing: 0.86

Incoming: Annotate the compound `CO[C@H]1[C@@H](O)[C@@H](C)O[C@@H](O[C@H]2[C@@H](OC)C[C@H](O[C@H]3[C@H](O)C[C@H](O[C@H]4[C@@H](OC)C[C@H](O[C@@H]5[C@@H](C)O[C@@]6(C[C@H]5OC)OCO[C@@H]5C[C@H](O[C@@H](C)[C@@]7(O)CC[C@H]8[C@@H]9CC=C%10C[C@@H](O)CC[C@]%10(C)[C@H]9CC[C@@]87C)O[C@H](C)[C@H]5O6)O[C@@H]4C)O[C@@H]3C)O[C@@H]2C)[C@@H]1OC(C)=O` with its measured IC50.
Outgoing: 1.13

Incoming: Annotate the compound `CO[C@H]1C[C@H](O[C@H]2[C@@H](OC)C[C@H](O[C@H]3[C@H](O)C[C@H](O[C@H]4[C@@H](O)C[C@H](O[C@@H]5[C@@H](C)O[C@@]6(C[C@H]5OC)OCO[C@@H]5C[C@H](O[C@@H](C)[C@@]7(O)CC[C@H]8[C@@H]9CC=C%10C[C@@H](O)CC[C@]%10(C)[C@H]9CC[C@@]87C)O[C@H](C)[C@H]5O6)O[C@@H]4C)O[C@@H]3C)O[C@@H]2C)O[C@H](C)[C@H]1OC(C)=O` with its measured IC50.
Outgoing: 1.74

* * *

test system: T-cell; assay: Inhibition of ConA-induced T lymphocytes (unknown origin) proliferation; format: functional, cell-based
Parameter measured: IC50 (nM)
# number only, unit nM dropped from output

Incoming: Annotate the compound `CO[C@H]1[C@@H](O)[C@@H](C)O[C@@H](O[C@H]2[C@@H](OC)C[C@H](O[C@H]3[C@@H](OC)C[C@H](O[C@H]4[C@@H](O)C[C@H](O[C@@H]5[C@@H](C)O[C@@]6(C[C@H]5OC)OCO[C@@H]5C[C@H](O[C@@H](C)[C@@]7(O)CC[C@H]8[C@@H]9CC=C%10C[C@@H](O)CC[C@]%10(C)[C@H]9CC[C@@]87C)O[C@H](C)[C@H]5O6)O[C@@H]4C)O[C@@H]3C)O[C@@H]2C)[C@@H]1O` with its measured IC50.
Outgoing: 470

Incoming: Annotate the compound `CO[C@H]1C[C@H](O[C@H]2[C@@H](OC)C[C@H](O[C@H]3[C@H](O)C[C@H](O[C@H]4[C@@H](O)C[C@H](O[C@@H]5[C@@H](C)O[C@@]6(C[C@H]5OC)OCO[C@@H]5C[C@H](O[C@@H](C)[C@@]7(O)CC[C@H]8[C@@H]9CC=C%10C[C@@H](O)CC[C@]%10(C)[C@H]9CC[C@@]87C)O[C@H](C)[C@H]5O6)O[C@@H]4C)O[C@@H]3C)O[C@@H]2C)O[C@H](C)[C@H]1OC(C)=O` with its measured IC50.
Outgoing: 1470

Incoming: Annotate the compound `CO[C@H]1[C@@H](O)[C@@H](C)O[C@@H](O[C@H]2[C@@H](OC)C[C@H](O[C@H]3[C@@H](OC)C[C@H](O[C@H]4[C@@H](OC)C[C@H](O[C@@H]5[C@@H](C)O[C@@]6(C[C@H]5OC)OCO[C@@H]5C[C@H](O[C@@H](C)[C@@]7(O)CC[C@H]8[C@@H]9CC=C%10C[C@@H](OC=O)CC[C@]%10(C)[C@H]9CC[C@@]87C)O[C@H](C)[C@H]5O6)O[C@@H]4C)O[C@@H]3C)O[C@@H]2C)[C@@H]1O` with its measured IC50.
Outgoing: 420

Incoming: Annotate the compound `CO[C@H]1[C@@H](O)[C@@H](C)O[C@@H](O[C@H]2[C@@H](OC)C[C@H](O[C@H]3[C@H](O)C[C@H](O[C@H]4[C@@H](OC)C[C@H](O[C@@H]5[C@@H](C)O[C@@]6(C[C@H]5OC)OCO[C@@H]5C[C@H](O[C@@H](C)[C@@]7(O)CC[C@H]8[C@@H]9CC=C%10C[C@@H](O)CC[C@]%10(C)[C@H]9CC[C@@]87C)O[C@H](C)[C@H]5O6)O[C@@H]4C)O[C@@H]3C)O[C@@H]2C)[C@@H]1OC(C)=O` with its measured IC50.
Outgoing: 180

* * *

test: Selectivity index, ratio of CC50 for lymphocytes (unknown origin) to IC50 for LPS-induced B lymphocytes (unknown origin) proliferation; type: toxicity; conditions: read-out: Ratio CC50/IC50
I'd be grateful if you could share measured selectivity ratio for these entries.
Lab note: record the figure alone, no unit after it.

Incoming: Annotate the compound `CO[C@H]1[C@@H](O)[C@@H](C)O[C@@H](O[C@H]2[C@@H](OC)C[C@H](O[C@H]3[C@@H](OC)C[C@H](O[C@H]4[C@@H](OC)C[C@H](O[C@@H]5[C@@H](C)O[C@@]6(C[C@H]5OC)OCO[C@@H]5C[C@H](O[C@@H](C)[C@@]7(O)CC[C@H]8[C@@H]9CC=C%10C[C@@H](OC=O)CC[C@]%10(C)[C@H]9CC[C@@]87C)O[C@H](C)[C@H]5O6)O[C@@H]4C)O[C@@H]3C)O[C@@H]2C)[C@@H]1O` with its measured selectivity ratio.
Outgoing: 170

Incoming: Annotate the compound `CO[C@H]1[C@@H](O)[C@@H](C)O[C@@H](O[C@H]2[C@@H](OC)C[C@H](O[C@H]3[C@H](O)C[C@H](O[C@H]4[C@@H](OC)C[C@H](O[C@@H]5[C@@H](C)O[C@@]6(C[C@H]5OC)OCO[C@@H]5C[C@H](O[C@@H](C)[C@@]7(O)CC[C@H]8[C@@H]9CC=C%10C[C@@H](O)CC[C@]%10(C)[C@H]9CC[C@@]87C)O[C@H](C)[C@H]5O6)O[C@@H]4C)O[C@@H]3C)O[C@@H]2C)[C@@H]1OC(C)=O` with its measured selectivity ratio.
Outgoing: 110
